Test system: HCT 116 cells (actively proliferating colorectal adenocarcinoma)
Experiment: in vitro inhibition of cell proliferation / survival assay
Type: cell-based
Conditions: Homo sapiens, 48 h, average of three assays, standard error ± 0.5 μM
Protocol: As an initial effort to investigate their in vitro bioactivity, the new synthesized 3-(4-arylmethylamino)butyl-2-thioxo-1,3-thiazolidine-4-one 9a–n and also their precursors 6a–f were evaluated for their in vitro inhibition of cell proliferation. […] Skin diploid fibroblastic cells were provided by BIOPREDIC International Company (Rennes, France). […] The IC50 were graphically determined.
pIC50: −log10 of the molar value.
Give Met when the value for pIC50 is at least 5. Give Not met when it is less.

compound	tested target	cat
COc1cc(/C=C2\SC(=S)N(CCCCNCc3ccc4c(c3)OCCO4)C2=O)ccc1O	HCT 116 cells (actively proliferating colorectal adenocarcinoma)	Not met
O=C1/C(=C/c2ccc(O)cc2)SC(=S)N1CCCCNCc1ccc2c(c1)OCO2	HCT 116 cells (actively proliferating colorectal adenocarcinoma)	Not met
O=C1/C(=C/c2ccc3c(c2)OCCO3)SC(=S)N1CCCCNCc1ccc2c(c1)OCO2	HCT 116 cells (actively proliferating colorectal adenocarcinoma)	Not met
CC(=O)O[C@H]1C(=O)[C@@]2(C)[C@H]([C@H](OC(=O)c3ccccc3)[C@]3(O)C[C@H](OC(=O)[C@H](O)[C@@H](NC(=O)c4ccccc4)c4ccccc4)C(C)=C1C3(C)C)[C@]1(OC(C)=O)CO[C@@H]1C[C@@H]2O [Taxol, reference compound]	HCT 116 cells (actively proliferating colorectal adenocarcinoma)	Met
COc1cccc2c1C(=O)c1c(O)c3c(c(O)c1C2=O)C[C@@](O)(C(=O)CO)C[C@@H]3O[C@H]1C[C@H](N)[C@H](O)[C@H](C)O1 [Doxorubicine, reference compound]	HCT 116 cells (actively proliferating colorectal adenocarcinoma)	Met

---

Each entry below carries its reported viability at 25 µM.
Test system: HaCat keratinocyte
Test: in vitro inhibition of cell proliferation / survival assay
Format: cell-based
Details: Homo sapiens, measured at 25 μM after 48 h, single dose, triplicate
Method: As an initial effort to investigate their in vitro bioactivity, the new synthesized 3-(4-arylmethylamino)butyl-2-thioxo-1,3-thiazolidine-4-one 9a–n and also their precursors 6a–f were evaluated for their in vitro inhibition of cell proliferation. […] Skin diploid fibroblastic cells were provided by BIOPREDIC International Company (Rennes, France). […] The IC50 were graphically determined.

line notation	viability at 25 µM
O=C1/C(=C/c2ccc3c(c2)OCO3)SC(=S)N1CCCCNCc1ccc2c(c1)OCO2	10%
COc1cccc(/C=C2\SC(=S)N(CCCCNCc3cccc(OC)c3)C2=O)c1	110%
COc1cccc(CNCCCCN2C(=O)/C(=C/c3ccc4c(c3)OCO4)SC2=S)c1	86%
Cl.NCCCCNCc1ccc2c(c1)OCO2	96%
COc1ccc(CNCCCCN2C(=O)/C(=C/c3ccc4c(c3)OCO4)SC2=S)cc1	103%
COc1ccc(/C=C2\SC(=S)N(CCCCNCc3ccc(OC)cc3)C2=O)cc1	104%
COc1cc(/C=C2\SC(=S)N(CCCCNCc3ccc4c(c3)OCCO4)C2=O)ccc1O	48%
COc1ccc(CNCCCCN2C(=O)/C(=C/c3ccc(O)c(OC)c3)SC2=S)cc1	2%
O=C1/C(=C/c2ccc(O)cc2)SC(=S)N1CCCCNCc1ccc2c(c1)OCO2	21%
COc1cccc(CNCCCCN2C(=O)/C(=C/c3ccc4c(c3)OCCO4)SC2=S)c1	100%

---

Test system: diploid skin fibroblasts
Experiment: in vitro inhibition of cell proliferation / survival assay, normal cells control
Type: cell-based
Conditions: Fibroblasts; measured at 25 μM after 48 h, single dose, triplicate
Experimental: As an initial effort to investigate their in vitro bioactivity, the new synthesized 3-(4-arylmethylamino)butyl-2-thioxo-1,3-thiazolidine-4-one 9a–n and also their precursors 6a–f were evaluated for their in vitro inhibition of cell proliferation. […] Skin diploid fibroblastic cells were provided by BIOPREDIC International Company (Rennes, France). […] The IC50 were graphically determined.

compound	measure unit	% of Survival
COc1cccc(CNCCCCN)c1.Cl [Compound 6d]	%	93
Cl.NCCCCNCc1ccccc1Cl [Compound 6c]	%	84
Cl.NCCCCNCc1ccc2c(c1)OCCO2 [Compound 6f]	%	105
COc1ccc(CNCCCCN)cc1.Cl [Compound 6b]	%	100

---

tested on: HCT 116 cells (actively proliferating colorectal adenocarcinoma); assay: in vitro inhibition of cell proliferation / survival assay; assay type: cell-based; conditions: Homo sapiens, measured at 25 μM after 48 h, single dose, triplicate

compound	tested target	measure unit	viability at 25 µM
O=C1/C(=C/c2ccc3c(c2)OCCO3)SC(=S)N1CCCCNCc1ccc2c(c1)OCCO2 [Compound 9m]	HCT 116 cells (actively proliferating colorectal adenocarcinoma)	%	103
O=C1/C(=C/c2ccc(O)cc2)SC(=S)N1CCCCNCc1ccc2c(c1)OCO2 [Compound 9j]	HCT 116 cells (actively proliferating colorectal adenocarcinoma)	%	40
Cl.NCCCCNCc1ccccc1 [Compound 6a]	HCT 116 cells (actively proliferating colorectal adenocarcinoma)	%	112
COc1ccc(/C=C2\SC(=S)N(CCCCNCc3ccc(OC)cc3)C2=O)cc1 [Compound 9b]	HCT 116 cells (actively proliferating colorectal adenocarcinoma)	%	102
COc1ccc(CNCCCCN2C(=O)/C(=C/c3ccc(O)c(OC)c3)SC2=S)cc1 [Compound 9d]	HCT 116 cells (actively proliferating colorectal adenocarcinoma)	%	1

---

Tested on: HCT 116 cells (actively proliferating colorectal adenocarcinoma)
Experiment: in vitro inhibition of cell proliferation / survival assay
Assay type: cell-based
Details: Homo sapiens, measured at 25 μM after 48 h, single dose, triplicate
Experimental: As an initial effort to investigate their in vitro bioactivity, the new synthesized 3-(4-arylmethylamino)butyl-2-thioxo-1,3-thiazolidine-4-one 9a–n and also their precursors 6a–f were evaluated for their in vitro inhibition of cell proliferation. […] Skin diploid fibroblastic cells were provided by BIOPREDIC International Company (Rennes, France). […] The IC50 were graphically determined.
property name: viability at 25 µM (%)

compound	property name	result value
COc1cc(/C=C2\SC(=S)N(CCCCNCc3ccc4c(c3)OCCO4)C2=O)ccc1O	viability at 25 µM	52
COc1cccc2c1C(=O)c1c(O)c3c(c(O)c1C2=O)C[C@@](O)(C(=O)CO)C[C@@H]3O[C@H]1C[C@H](N)[C@H](O)[C@H](C)O1 [Doxorubicine, reference compound]	viability at 25 µM	22
O=C1/C(=C/c2ccc3c(c2)OCO3)SC(=S)N1CCCCNCc1ccc2c(c1)OCO2	viability at 25 µM	65
COc1cccc(CNCCCCN2C(=O)/C(=C/c3ccc4c(c3)OCO4)SC2=S)c1	viability at 25 µM	99
CC(=O)O[C@H]1C(=O)[C@@]2(C)[C@H]([C@H](OC(=O)c3ccccc3)[C@]3(O)C[C@H](OC(=O)[C@H](O)[C@@H](NC(=O)c4ccccc4)c4ccccc4)C(C)=C1C3(C)C)[C@]1(OC(C)=O)CO[C@@H]1C[C@@H]2O [Taxol, reference compound]	viability at 25 µM	9

---

Each entry below carries its reported melting point.
property name: melting point

molecule	property name	result value
COc1cc(/C=C2\SC(=S)N(CCCCNCc3ccc4c(c3)OCO4)C2=O)ccc1O [Compound 9k]	melting point	200 to 203 °C
COc1cccc(/C=C2\SC(=S)N(CCCCNCc3cccc(OC)c3)C2=O)c1 [Compound 9g]	melting point	225 to 227 °C
Cl.NCCCCNCc1ccccc1 [Compound 6a]	melting point	> 260 °C
COc1ccc(CNCCCCN2C(=O)/C(=C/c3ccc4c(c3)OCO4)SC2=S)cc1 [Compound 9a]	melting point	170 to 229 °C (dec.)
COc1cccc(CNCCCCN2C(=O)/C(=C/c3ccc4c(c3)OCCO4)SC2=S)c1 [Compound 9f]	melting point	247 to 251 °C
Cl.NCCCCNCc1ccc2c(c1)OCO2 [Compound 6e]	melting point	> 260 °C
O=C1/C(=C/c2ccc3c(c2)OCCO3)SC(=S)N1CCCCNCc1ccc2c(c1)OCO2 [Compound 9i]	melting point	253 to 257 °C
COc1cc(/C=C2\SC(=S)N(CCCCNCc3ccc4c(c3)OCCO4)C2=O)ccc1O [Compound 9n]	melting point	202 to 204 °C
COc1ccc(CNCCCCN2C(=O)/C(=C/c3ccc(O)c(OC)c3)SC2=S)cc1 [Compound 9d]	melting point	191 to 193 °C

---

test system: HaCat keratinocyte; assay: in vitro inhibition of cell proliferation / survival assay; assay type: cell-based; conditions: measured at 25 μM after 48 h, single dose, triplicate

line notation	measure unit	% of Survival
Cl.NCCCCNCc1ccc2c(c1)OCCO2	%	94
COc1ccc(CNCCCCN)cc1.Cl	%	106
COc1cccc(CNCCCCN)c1.Cl	%	96
Cl.NCCCCNCc1ccccc1Cl	%	80

---

property name: melting point

line notation	result value
COc1ccc(CNCCCCN2C(=O)/C(=C/c3ccc4c(c3)OCCO4)SC2=S)cc1	255 to 261 °C
COc1ccc(/C=C2\SC(=S)N(CCCCNCc3ccc(OC)cc3)C2=O)cc1	253 to 255 °C
O=C1/C(=C/c2ccc3c(c2)OCO3)SC(=S)N1CCCCNCc1ccc2c(c1)OCO2	245 to 256 °C

Source of measurements: paper PMC6332318
